Reference for the values: a melting point compilation (Tetko et al.; mined from patent text by program, amines drawn as free bases though some values may be those of a salt)

I'd appreciate it if you could supply melting point values for the items below.

[Q] Which measured melting point value corresponds to O=C1N(Cc2ccccn2)c2ccccc2C12COc1cc3c(c(-c4ccoc4)c12)CCO3 (stereo not given) ?
[A] 195 to 197 °C

[Q] Which measured melting point value corresponds to `Cc1cc2ncc(C(=O)O)nc2cc1C` ?
[A] 214 to 216 °C

[Q] Which measured melting point value corresponds to `CCc1ccc(SCCC(=O)O)cc1` ?
[A] 59 to 60 °C

[Q] Which measured melting point value corresponds to `O=C(O)CCCc1cc2nc(Cl)ccc2n1S(=O)(=O)c1ccc(-c2cscn2)cc1` ?
[A] 211 to 217 °C

[Q] Which measured melting point value corresponds to `C=CCN(CC=C)C(=O)n1cnc(S(=O)(=O)CCCCC)n1` ?
[A] 28 to 30 °C

* * *

Measurement Kind: melting point

[Q] Which measured melting point value corresponds to CC(C)C1(C)NC(c2ccccc2C(=O)N(C)C)=NC1=O (stereo unspecified) ?
[A] 144 to 146 °C

[Q] Which measured melting point value corresponds to `CCCCCCCCCCCCc1cc(C(=O)O)c(C)o1` ?
[A] 70 to 73 °C

[Q] Which measured melting point value corresponds to `CC(=O)C(Cc1cc(O)c(O)c([N+](=O)[O-])c1)C(C)=O` ?
[A] 118 to 128 °C

[Q] Which measured melting point value corresponds to `NCCc1ccc(-c2ccc(O)cc2)cc1` ?
[A] > 350 °C

[Q] Which measured melting point value corresponds to Cn1nnnc1SCC1c2cc(O)c(O)cc2CCN1C(=O)OCC(Cl)(Cl)Cl (stereo unspecified) ?
[A] 201 to 207 °C

[Q] Which measured melting point value corresponds to `CCOC(=O)c1oc(Br)nc1C` ?
[A] 94.5 to 95.5 °C

* * *

I'd appreciate it if you could supply melting point values for the items below.

[Q] Which measured melting point value corresponds to `Cn1nc(O)cc1C(F)(F)C(F)(F)F` ?
[A] 119 to 124 °C

[Q] Which measured melting point value corresponds to `O=C(O)C(=O)c1ccc(OCCOc2ccc3ccccc3c2)c(Cl)c1` ?
[A] 167 to 168 °C

[Q] Which measured melting point value corresponds to CN(C)C1(c2ccccn2)CCC(NCCc2c[nH]c3ccccc23)CC1 (stereo unspecified) ?
[A] 150 to 152 °C

[Q] Which measured melting point value corresponds to `O=C(O)CN1CCN(c2ccnc(-c3nc(=O)c4ccccc4s3)c2)C1=O` ?
[A] 271 to 273 °C

[Q] Which measured melting point value corresponds to `CCNc1nc(C=O)cs1` ?
[A] 84 to 85 °C

[Q] Which measured melting point value corresponds to `CCOC(=O)c1c(Br)c2cc(OCc3ccccc3)ccc2n1C` ?
[A] 125 to 127 °C

[Q] Which measured melting point value corresponds to `O=C(CCNC(=O)[C@H](Cc1ccccc1)OP(=O)(O)CCCCc1ccccc1)OCc1ccccc1` ?
[A] 64 to 70 °C

[Q] Which measured melting point value corresponds to `N#Cc1nn(-c2c(Cl)cc(Cl)cc2Cl)c(N)c1C#N` ?
[A] 267 to 271 °C

[Q] Which measured melting point value corresponds to `CSc1ccc(N)c([N+](=O)[O-])c1` ?
[A] 72 to 73 °C

[Q] Which measured melting point value corresponds to `CCCSc1sc(C(N)=O)c2c1-c1nn(C(C)=O)cc1CC2` ?
[A] 219 to 220 °C

[Q] Which measured melting point value corresponds to CC1C(=O)N(c2cc(Cl)cc(Cl)c2)CS1=O (stereo unspecified) ?
[A] 146 to 149 °C

[Q] Which measured melting point value corresponds to `O=S(=O)(C(=CNc1ccccc1)S(=O)(=O)c1ccccc1)c1ccccc1` ?
[A] 199 to 202 °C

[Q] Which measured melting point value corresponds to `N#Cc1ccc(CCc2n[nH]c3c2c(=O)n(-c2ccccc2)c2ncccc32)cc1` ?
[A] 267 to 269 °C

[Q] Which measured melting point value corresponds to Cc1cc(C(F)(C(F)(F)F)C(F)(F)F)ccc1N1C(=O)c2cccc(Cl)c2C1NC(C)(C)CS(C)(=O)=O (stereo unspecified) ?
[A] 154 to 156 °C

[Q] Which measured melting point value corresponds to CCNC(=O)c1ccc(N2CCN(Cc3cc(Cc4ccccc4)c4c(c3)NC(=O)C(C)O4)CC2)cc1 (stereo unspecified) ?
[A] 198 to 206 °C

[Q] Which measured melting point value corresponds to `Cc1nnc(-c2ccc3occ(-c4ccccc4C(F)(F)F)c3c2)o1` ?
[A] 159 to 160 °C

[Q] Which measured melting point value corresponds to `COC(=O)CNc1ccc2c(c1)OCO2` ?
[A] 105 to 106 °C

[Q] Which measured melting point value corresponds to `CC(C)(O)[C@@H](N)c1cccc2ccccc12` ?
[A] 86 to 87 °C

[Q] Which measured melting point value corresponds to `CCCN(c1cccc(-c2ccnc3c([N+](=O)[O-])cnn23)c1)S(=O)(=O)c1ccc(OC)cc1` ?
[A] 184 to 185 °C

[Q] Which measured melting point value corresponds to `C#CCSc1ccc([N+](=O)[O-])cn1` ?
[A] 98 to 99.5 °C

[Q] Which measured melting point value corresponds to `CCCCCCCCc1c(N)nc(S(C)(=O)=O)nc1CC` ?
[A] 90 to 92 °C
